Biological target: T1, 4H1864-AA
T1 chain: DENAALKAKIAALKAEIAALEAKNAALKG
Test: two-hybrid library CCmax;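 note: natural log of median RNA to DNA barcode read ratio; higher means stronger binding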
Conditions: mean of both orientations
The threshold is inclusive: interaction score of exactly 0.4 counts as Criterion met; values below receive Criterion not met.

# Binder, Category
rows = [
    ("DEIAALEAENAALEAKIAALKAKIAALKG [4H174-AA]", "Criterion not met"),
    ("DENAALEAKIAALEAENAALKAKIAALKG [4H1310-AA]", "Criterion not met"),
    ("DENAALKAEIAALEAKNAALKAKIAALEG [4H1597-AA]", "Criterion met"),
    ("DENAALKAKIAALEAKNAALEAEIAALKG [4H1842-AA]", "Criterion not met"),
    ("DENAALEAKIAALKAKIAALKAEIAALEG [4H1385-AA]", "Criterion met"),
    ("DENAALEAKNAALKAEIAALEAKIAALKG [4H1478-AA]", "Criterion met"),
]
